Readings of GI50 for the listed compounds
- Tested on: SK-MEL-5
- assayInfo: NCI tumour cell line growth inhibition, 48 h
The source made the active and inactive calls. Rule as the data show it: active = GI50 up to about 1.1 µM and inactive = higher.

INSERT INTO assay_data (compound, reportedendpoint, result) VALUES
  ('CC(NC(=O)c1ccc(Cl)c(Cl)c1)c1ccc(-c2ccccc2)cc1 (configuration not stated)', 'GI50', '75.7 µM (inactive)');

We now examine a further compound.
Q) Form entry - test system: SK-MEL-5; read-out: GI50; compound: `NCCNC(=S)S`
A) > 100 µM (inactive)

* * *

- System: SN12C
- assayInfo: NCI tumour cell line growth inhibition, 48 h
The source made the active and inactive calls. No stated cut-off is given here; in the data, active = GI50 up to about 1.1 µM and inactive = higher.
Can you answer with just one of these options? active, inactive

Q) In this assay, the call recorded for `CN(NC(=O)CCCl)C1=NCCCCN1` was what?
A) inactive

* * *

- System: PC-3
- assayInfo: NCI tumour cell line growth inhibition, 48 h
Calls of active or inactive are those of the source. Rule as the data show it: active = GI50 up to about 1.1 µM and inactive = higher.
reportedEndpoint: GI50

For orientation, consider the following solved cases.
INSERT INTO measurements (compound, reportedendpoint, result) VALUES
  ('CNC(=O)C1CCCN1C(=O)C(Cc1c[nH]cn1)NC(=O)C1CCC(=O)N1 (stereo not drawn)', 'GI50', '> 100 µM (inactive)'),
  ('CC(C)COP(=O)(OCC(C)C)C(NS(=O)(=O)c1ccccc1)(C(F)(F)F)C(F)(F)F', 'GI50', '3.68 µM (inactive)'),
  ('CC1(C)c2ccccc2C(=O)C12CCC(=O)CC2', 'GI50', '> 100 µM (inactive)'),
  ('COc1cc2c(cc1OC)OC(c1c(OC)ccc(OC)c1O)CC2 (stereo not drawn)', 'GI50', '> 100 µM (inactive)'),
  ('OC1c2ccccc2CC12Cc1ccccc1C2 (stereo not drawn)', 'GI50', '> 100 µM (inactive)');

Q) Would you mind telling me what GI50 value was observed for `c1ccc(-c2cc(-c3cc(-c4ccccc4)[nH]n3)[nH]n2)cc1` ?
A) > 100 µM (inactive)

Q) Would you mind telling me what GI50 value was observed for `COc1ccc(C[C@H]2COC(=O)[C@@H]2Cc2cc(OC)c(OC)c(OC)c2)cc1OC` ?
A) 42 µM (inactive)

Q) Would you mind telling me what GI50 value was observed for `CCCCC[C@H](O)[C@H](C)C=C1SCCCS1` ?
A) > 100 µM (inactive)

Q) Would you mind telling me what GI50 value was observed for `CCSc1nc(N)c2c(-c3ccc(OC)c(OC)c3)c3c(nc2n1)CCCC3` ?
A) > 100 µM (inactive)

Q) Would you mind telling me what GI50 value was observed for Cc1cccc(C2ON=C(c3ccccc3)N2C23CC4CC(CC(C4)C2)C3)c1 (stereo not drawn) ?
A) > 10 µM (inactive)

Q) Would you mind telling me what GI50 value was observed for CC(Nc1ccc(Cl)c(Cl)c1)c1ccncc1 (stereo not drawn) ?
A) 19.4 µM (inactive)

Q) Would you mind telling me what GI50 value was observed for `O=C(O)CSc1ncccc1[N+](=O)[O-]` ?
A) > 100 µM (inactive)

* * *

- System: OVCAR-5
- assayInfo: NCI tumour cell line growth inhibition, 48 h
Activity calls are given as the source filed them. Rule as the data show it: active = GI50 up to about 1.1 µM and inactive = higher.
Can you answer with just one of these options? yes = active, no = inactive

INSERT INTO measurements (compound, classname) VALUES
  ('CCOC(=O)c1nc2ccc(C(F)(F)F)cc2nc1NCc1ccc(OC)cc1', 'no');

Q) In this assay, the call recorded for `CN1CCN([C@H]2C[C@H]3[C@@H]4CC=C5C[C@@H](N6CCCC6)CC[C@]5(C)[C@H]4CC[C@]3(C)[C@H]2O)CC1` was what?
A) no

Q) In this assay, the call recorded for CC(=O)OCC1OC(SC2=NC(=O)CS2)C(OC(C)=O)C(OC(C)=O)C1OC(C)=O (stereo unspecified) was what?
A) no

Q) In this assay, the call recorded for `O=C(O)CSc1nnc(Cc2ccccc2)[nH]1` was what?
A) no

Q) In this assay, the call recorded for COC(=O)c1c(C)cccc1C1CN=NC12Cc1ccccc1C2=O (stereo unspecified) was what?
A) no

Q) In this assay, the call recorded for CNC(=O)C1CCCN1C(=O)C(Cc1c[nH]cn1)NC(=O)C1CCC(=O)N1 (stereo unspecified) was what?
A) no

Q) In this assay, the call recorded for `C/C(CN1C(=O)c2ccccc2C1=O)=N\NS(C)(=O)=O` was what?
A) no

Q) In this assay, the call recorded for NC[C@H]1Nc2ccccc2[C@@H](O)C1O (stereo partly specified) was what?
A) no

Q) In this assay, the call recorded for `CC(=O)c1cc2c(s1)C(=O)c1sccc1C2=O` was what?
A) yes

Q) In this assay, the call recorded for `Cc1nc2ccc(Br)cc2c(=O)n1-c1nnc(C(C)(C)C)s1` was what?
A) no

Q) In this assay, the call recorded for CC1=NN(C(=O)c2ccncc2)C(=O)C1/N=N/c1ccc2ccccc2c1 (stereo unspecified) was what?
A) no

Q) In this assay, the call recorded for `O=C1c2ccccc2-c2nnc(-c3ccc([N+](=O)[O-])cc3)cc21` was what?
A) no

Q) In this assay, the call recorded for CC(C)(C)OC(=O)NC(CO)c1cccc(OCc2ccccc2)c1 (stereo unspecified) was what?
A) no
